- Tested on: SK-OV-3 ovarian
- assay_name: NCI tumour cell line growth inhibition, 48 h

{"columns": ["compound", "experimental_target", "TGI"],
 "data": [
  ["Cc1nc2sc(C(=O)Nc3cccc4ccccc34)c(N)c2cc1C(C)O (stereo not given)", "SK-OV-3 ovarian", "> 50 µM"],
  ["COc1ccc(-c2cc3cccc(OC)c3c(=O)o2)cc1OC", "SK-OV-3 ovarian", "> 100 µM"],
  ["O=C1CCC2(c3ccc(F)cc3)Nc3ccccc3N12 (stereo not given)", "SK-OV-3 ovarian", "> 100 µM"],
  ["COc1ccc(/C=C2/CN(C(=O)c3ccccc3F)C/C(=C\\c3ccc(OC)cc3)C2=O)cc1", "SK-OV-3 ovarian", "18.3 µM"],
  ["CO/N=C(\\c1ccccc1)c1cnn(-c2ccccc2)c1N", "SK-OV-3 ovarian", "> 25 µM"],
  ["COc1cc(OC)cc(N2CCC(c3c(N)nc(N)nc3Cl)CC2)c1", "SK-OV-3 ovarian", "> 100 µM"],
  ["O=C(NNc1nc2cc(F)ccc2n2c(CN3CCOCC3)ccc12)c1ccccc1", "SK-OV-3 ovarian", "3.39 µM"],
  ["CC(NC(=O)c1ccccc1)C(=O)N(Cc1ccccc1)Cc1ccccc1 (stereo not given)", "SK-OV-3 ovarian", "> 100 µM"],
  ["COc1cc(OC)c(-c2cc(=O)c3c(OC)c(OC)c(OC)c(OC)c3o2)cc1OC", "SK-OV-3 ovarian", "> 100 µM"],
  ["O=C(CCN1CCCCC1CCO)Nc1ccc2c(c1)C(=O)c1ccc(NC(=O)CCN3CCCCC3CCO)cc1C2=O (stereo not given)", "SK-OV-3 ovarian", "22.6 µM"]
]}
